Origin of values: patent US10562912B2

test system: DU-145; test: Cell growth inhibition assay, prostate cancer cell line DU-145; format: cell-based; details: Homo sapiens, DU-145 prostate cancer cell line
Threshold 0.05 µM: IC50 strictly smaller gives true (1), otherwise false (0).

{"Item smiles": "CCC(CC)(c1cc(NC(=O)c2cc3cc(NS(C)(=O)=O)ccc3s2)cc(OC)c1)c1cc(OC)cc(OC(F)(F)F)c1", "Qualitative label": "true (1)"}
{"Item smiles": "CC(C)(c1ccc(Cl)cc1)c1cc(Cl)cc(NC(=O)c2cc3cc(NS(C)(=O)=O)c(Br)cc3s2)c1", "Qualitative label": "true (1)"}
{"Item smiles": "CS(=O)(=O)Nc1ccc2sc(C(=O)Nc3cc(Br)cc(S(=O)(=O)N4CCc5ccc(F)cc5C4)c3)cc2c1", "Qualitative label": "false (0)"}
{"Item smiles": "CC(C)(c1ccc(Br)cc1)c1cc(Cl)cc(NC(=O)c2cc3cc(NS(C)(=O)=O)ccc3s2)c1", "Qualitative label": "true (1)"}
{"Item smiles": "CS(=O)(=O)Nc1cc2cc(C(=O)Nc3cc(Cl)cc(Oc4ccc(Cl)c(F)c4)c3)sc2cc1Cl", "Qualitative label": "true (1)"}
{"Item smiles": "CS(=O)(=O)Nc1ccc2sc(C(=O)Nc3cc(Cl)cc(-c4cncc(Cl)n4)c3)cc2c1", "Qualitative label": "false (0)"}
{"Item smiles": "CCOc1cc(OC(F)(F)F)cc(C(C)(C)c2cc(Br)cc(NC(=O)c3cc4cc(NS(C)(=O)=O)ccc4s3)c2)c1", "Qualitative label": "true (1)"}

====

test system: LNCaP; assay: Cell growth inhibition assay, prostate cancer cell line LNCaP (medium with 10 ng/mL IL-6); assay type: cell-based; conditions: Homo sapiens, medium supplemented with 10 ng/mL of IL-6, 10,000 cells/well
Some compounds, each annotated with its measured log10 of IC50.
Experimental endpoint: log10 of IC50 (log10 of the value in µM)

{"Item smiles": "CS(=O)(=O)Nc1ccc2cc(C(=O)Nc3cc(C#N)cc(-c4ccc(F)cc4F)c3)[nH]c2c1", "Experimental endpoint": "log10 of IC50", "Meas value": 0.59}
{"Item smiles": "Cn1cc(Cc2cc(OC(F)(F)C(F)F)cc(C(C)(C)c3cc(Cl)cc(NC(=O)c4cc5cc(NS(C)(=O)=O)ccc5s4)c3)c2)cn1", "Experimental endpoint": "log10 of IC50", "Meas value": -1.27}
{"Item smiles": "CS(=O)(=O)Nc1ccc2sc(C(=O)Nc3cc(Cl)cc(Oc4ccc(F)c(F)c4)c3)cc2c1", "Experimental endpoint": "log10 of IC50", "Meas value": -0.64}
{"Item smiles": "CC#Cc1cc(OC(F)(F)F)cc(C(C)(C)c2cc(Cl)cc(NC(=O)c3cc4cc(NS(C)(=O)=O)ccc4s3)c2)c1", "Experimental endpoint": "log10 of IC50", "Meas value": -1.21}
{"Item smiles": "CS(=O)(=O)Nc1ccc2cc(C(=O)Nc3cc(OC(F)F)cc(-c4ccc(F)cc4F)c3)[nH]c2c1", "Experimental endpoint": "log10 of IC50", "Meas value": 0.58}

====

Some compounds, each annotated with its measured IC50.
tested on: HEL92.1.7; experiment: Cell growth inhibition assay, blood cancer cell line HEL92.1.7; assay type: cell-based; details: Homo sapiens, HEL 92.1.7, HEL92.1.7 blood cancer cell line

{"Item smiles": "COc1cc(OC(F)(F)F)cc(-c2cc(Cl)cc(NC(=O)c3cc4cc(NS(C)(=O)=O)c(F)cc4s3)c2)c1", "IC50": "0.39 µM"}
{"Item smiles": "CC(C)Oc1cc(CN2CCOCC2)cc(C(C)(C)c2cc(Br)cc(NC(=O)c3cc4cc(NS(C)(=O)=O)ccc4s3)c2)c1", "IC50": "0.19 µM"}
{"Item smiles": "CC(C)Oc1cc(OC(F)(F)F)cc(C(C)(C)c2cc(Cl)cc(NC(=O)c3cc4cc(N5CCCS5(=O)=O)ccc4s3)c2)c1", "IC50": "0.081 µM"}
{"Item smiles": "CCOc1cc(OC(F)(F)F)cc(C(C)(C)c2cc(Br)cc(NC(=O)c3cc4cc(NS(C)(=O)=O)ccc4s3)c2)c1", "IC50": "0.026 µM"}

====

molecular target: STAT3 (Homo sapiens, UniProt P40763); construct: plasmid pSTAT3-TA-luc), which contains a stably operating STAT3 promoter; endogenous in cells; test: STAT3 reporter gene assay (luciferase), LNCaP stable cell line (pSTAT3-TA-luc), IL-6 stimulation; type: cell-based
Sequence (P40763 whole entry): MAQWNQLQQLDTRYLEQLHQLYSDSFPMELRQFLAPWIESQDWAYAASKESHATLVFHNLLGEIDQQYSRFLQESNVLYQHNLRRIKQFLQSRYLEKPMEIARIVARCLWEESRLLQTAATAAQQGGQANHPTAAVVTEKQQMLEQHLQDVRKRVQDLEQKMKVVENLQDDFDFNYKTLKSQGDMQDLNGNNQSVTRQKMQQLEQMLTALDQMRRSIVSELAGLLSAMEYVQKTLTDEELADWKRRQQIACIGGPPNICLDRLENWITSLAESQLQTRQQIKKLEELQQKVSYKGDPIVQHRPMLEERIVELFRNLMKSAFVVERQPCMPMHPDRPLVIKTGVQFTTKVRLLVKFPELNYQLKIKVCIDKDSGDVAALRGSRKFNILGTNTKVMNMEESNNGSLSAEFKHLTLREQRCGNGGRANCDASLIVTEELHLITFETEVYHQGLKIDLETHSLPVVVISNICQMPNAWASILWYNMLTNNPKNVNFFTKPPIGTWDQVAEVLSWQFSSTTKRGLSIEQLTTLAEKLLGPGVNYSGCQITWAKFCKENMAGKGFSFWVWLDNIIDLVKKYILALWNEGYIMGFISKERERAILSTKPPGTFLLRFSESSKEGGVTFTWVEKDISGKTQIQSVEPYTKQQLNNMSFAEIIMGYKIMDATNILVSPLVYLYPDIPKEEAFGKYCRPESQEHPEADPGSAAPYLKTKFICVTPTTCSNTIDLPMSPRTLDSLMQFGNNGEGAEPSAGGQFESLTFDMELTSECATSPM
Threshold 0.1 µM: IC50 strictly smaller gives criterion met, otherwise criterion not met.

{"Compound": "CC(C)(c1cc(Cl)cc(NC(=O)c2cc3cc(NS(C)(=O)=O)ccc3s2)c1)n1ncccc1=O", "System name": "STAT3 (Homo sapiens, UniProt P40763)", "Qualitative label": "criterion not met"}
{"Compound": "CC(C)Oc1cc(OC(F)(F)F)cc(C(C)(C)c2cc(Cl)cc(NC(=O)c3cc4cc(NS(C)(=O)=O)ccc4[s+]3[O-])c2)c1 (stereo not drawn)", "System name": "STAT3 (Homo sapiens, UniProt P40763)", "Qualitative label": "criterion not met"}
{"Compound": "CS(=O)(=O)Nc1cc2cc(C(=O)Nc3cc(Cl)cc(-c4ccc(F)cc4F)c3)sc2cc1Cl", "System name": "STAT3 (Homo sapiens, UniProt P40763)", "Qualitative label": "criterion met"}
{"Compound": "CC(C)Oc1cc(CN2CCOCC2)cc(C(C)(C)c2cc(Br)cc(NC(=O)c3cc4cc(NS(C)(=O)=O)ccc4s3)c2)c1", "System name": "STAT3 (Homo sapiens, UniProt P40763)", "Qualitative label": "criterion not met"}
{"Compound": "CC(C)Oc1cc(CN2CCN(c3noc(C(C)C)n3)CC2)cc(C(C)(C)c2cc(Cl)cc(NC(=O)c3cc4cc(NS(C)(=O)=O)ccc4s3)c2)c1", "System name": "STAT3 (Homo sapiens, UniProt P40763)", "Qualitative label": "criterion met"}

====

system: LNCaP; assay: Cell growth inhibition assay, prostate cancer cell line LNCaP (medium with 10 ng/mL IL-6); format: cell-based; conditions: Homo sapiens, medium supplemented with 10 ng/mL of IL-6, 10,000 cells/well
Some molecules, each annotated with its measured IC50.
Experimental endpoint: IC50 (µM)

{"Molecule": "CS(=O)(=O)Nc1ccc2cc(C(=O)Nc3cccc(C(F)(F)c4cccc(C#N)c4)c3)[nH]c2c1 [Example 390]", "System name": "LNCaP", "Experimental endpoint": "IC50", "Meas value": 2.5}
{"Molecule": "CS(=O)(=O)Nc1ccc2cc(C(=O)Nc3cccc(-c4ccc(C#N)cc4C(F)(F)F)c3)[nH]c2c1 [Example 284]", "System name": "LNCaP", "Experimental endpoint": "IC50", "Meas value": 3.1}
{"Molecule": "CC(C)Oc1cc(OC(F)(F)F)cc(C2(c3cc(Cl)cc(NC(=O)c4cc5cc(N(C)S(C)(=O)=O)c(F)cc5s4)c3)CC2)c1 [Example 430]", "System name": "LNCaP", "Experimental endpoint": "IC50", "Meas value": 0.006}
{"Molecule": "CC(C)COc1cc(NC(=O)c2cc3ccc(NS(C)(=O)=O)cc3[nH]2)cc(-c2ccc(F)cc2F)c1 [Example 367]", "System name": "LNCaP", "Experimental endpoint": "IC50", "Meas value": 7.4}

====

tested on: LNCaP; assay: Cell growth inhibition assay, prostate cancer cell line LNCaP (medium with 10 ng/mL IL-6); type: cell-based; conditions: Homo sapiens, medium supplemented with 10 ng/mL of IL-6, 10,000 cells/well
Some molecules, each annotated with its measured IC50.

{"Molecule": "CC(C)COc1cc(NC(=O)c2cc3ccc(NS(C)(=O)=O)cc3[nH]2)cc(C(F)(F)c2cccc(C#N)c2)c1", "IC50": "8.3 µM"}
{"Molecule": "CCn1cccc1C(C)(C)c1cc(Cl)cc(NC(=O)c2cc3cc(NS(C)(=O)=O)ccc3s2)c1", "IC50": "0.1 µM"}
{"Molecule": "O=C(Nc1cccc(-c2ccc(F)cc2C(F)(F)F)c1)c1cc2ccc([N+](=O)[O-])cc2[nH]1", "IC50": "> 10 µM"}
{"Molecule": "CS(=O)(=O)Nc1ccc2cc(C(=O)Nc3cccc(C(F)(F)c4ccccc4)c3)[nH]c2c1", "IC50": "3.5 µM"}
{"Molecule": "O=C(Nc1cccc(-c2ccccc2C(F)(F)F)c1)c1cc2ccc(NS(=O)(=O)C(F)(F)F)cc2[nH]1", "IC50": "> 10 µM"}
{"Molecule": "COc1cc(OC(F)(F)F)cc(-c2cc(Cl)cc(NC(=O)c3cc4cc(NS(=O)(=O)C5CCOC5)ccc4s3)c2)c1 (stereo not drawn)", "IC50": "0.34 µM"}
{"Molecule": "CS(=O)(=O)Nc1ccc2cc(C(=O)Nc3cccc(-c4ccccc4C(F)(F)F)c3)[nH]c2c1", "IC50": "4.1 µM"}
{"Molecule": "COc1cc(NS(C)(=O)=O)cc2cc(C(=O)Nc3cccc(C(C)(C)c4ccc(F)cc4)c3)oc12", "IC50": "> 10 µM"}
{"Molecule": "CS(=O)(=O)Nc1ccc2cc(C(=O)Nc3cc(OCC(F)F)cc(S(=O)(=O)c4cccc(OC(F)(F)F)c4)c3)[nH]c2c1", "IC50": "8 µM"}
{"Molecule": "CS(=O)(=O)Nc1ccc2[nH]c(C(=O)Nc3cccc(-c4ccc(F)cc4F)c3)cc2c1", "IC50": "2.6 µM"}
{"Molecule": "O=C(Nc1cccc(-c2ccc(F)cc2F)c1)c1cc2cc(OC(F)(F)F)ccc2[nH]1", "IC50": "8.3 µM"}
{"Molecule": "CC(C)(c1ccc(Cl)cc1)c1cc(Cl)cc(NC(=O)c2cc3cc(NS(C)(=O)=O)c(Br)cc3s2)c1", "IC50": "0.11 µM"}
{"Molecule": "CC(C)Oc1cc(OC(F)(F)F)cc(C(C)(C)c2cc(Cl)cc(NC(=O)c3cc4nc(NS(C)(=O)=O)ccc4s3)c2)c1", "IC50": "0.29 µM"}
{"Molecule": "CS(=O)(=O)Nc1ccc2sc(C(=O)Nc3cc(Cl)cc(Oc4ccc(Cl)c(OC(F)(F)F)c4)c3)cc2c1", "IC50": "0.04 µM"}
{"Molecule": "CS(=O)(=O)Nc1ccc2cc(C(=O)Nc3cc(-c4cc(C(N)=O)ccc4Cl)ccn3)[nH]c2c1", "IC50": "> 10 µM"}
